# Test: Cytometric Cell-Based qHTS for Inhibitors of the mTORC1 Signaling Pathway in MEF (Tsc2-/-, p53-/-) Cells (AID 2660);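 further: Tsc2 and p53 null MEFs carrying empty vector with compound for 24 h; percent of cells above a phospho-rpS6 to PI ratio cutoff in each well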
# Applied conditions: mTORC1 pathway cytometry; series mostly up to 38.3 µM
Inconclusive results are not listed. Active and inactive are the calls of the source. The call rests on the fitted dose curve; in most records, active means well fitted curve in the direction sought with a large enough effect; inconclusive means small, poorly fitted or top-dose-only effect, or another doubt; inactive means no such curve, though single readings can be large or run the other way.
Endpoint label: outcome

Use these answered entries as a reference point.
C=CCN1C[C@@H](C)N([C@H](c2ccc(C(=O)N(CC)CC)cc2)c2cccc(OC)c2)C[C@@H]1C    inactive
CN1C2CCC1CC(OC(c1ccccc1)c1ccccc1N)C2 (stereo not given)    inactive
CC(N)Cc1c[nH]c2ccc(OCc3cccs3)cc12 (stereo not given)    inactive
C[C@H](Cc1ccc2c(c1)OC(C(=O)O)(C(=O)O)O2)NC[C@H](O)c1cccc(Cl)c1    inactive

outcome for C=CCN1CCC23c4c5ccc(O)c4O[C@H]2C(=O)CC[C@@]3(O)C1C5 (stereo not given in full) is inactive
